Cited source for all entries: ChEMBL document CHEMBL3507680

# PROTOCOL TEXT: Human HepG2 cell viability assay in 384 well format
# Format: toxicity, cell-based
# Set-up: dose 125 nL, time 70.5 hour; concentration not given beside the values
# TEST SETTINGS: HepG2 cells, read-out: Inhibition
Attribute: cytotoxicity at 70.5 h
Number only, in %; omit the unit.

{"COMPOUND": "Cc1sc(Br)cc1S(=O)(=O)NCCCN", "EXPERIMENTAL READOUT": "cytotoxicity at 70.5 h", "SCALE UNIT": "%", "REPORTED VALUE": -8.71}
{"COMPOUND": "COCCNC(=O)[C@@H]1CCO[C@@H]2CCN(c3ccc(C)nn3)C[C@@H]21", "EXPERIMENTAL READOUT": "cytotoxicity at 70.5 h", "SCALE UNIT": "%", "REPORTED VALUE": -15.8}
{"COMPOUND": "COCCNc1ccccc1CNC(=O)C1CCCOC1 (configuration not stated)", "EXPERIMENTAL READOUT": "cytotoxicity at 70.5 h", "SCALE UNIT": "%", "REPORTED VALUE": -2.32}
{"COMPOUND": "O=C(c1cc2ccccc2o1)N1CCN(Cn2cc(Cl)cn2)CC1", "EXPERIMENTAL READOUT": "cytotoxicity at 70.5 h", "SCALE UNIT": "%", "REPORTED VALUE": -5.33}
{"COMPOUND": "Cc1n[nH]c(C)c1-c1nccnc1CC1CCN(S(C)(=O)=O)C1 (configuration not stated)", "EXPERIMENTAL READOUT": "cytotoxicity at 70.5 h", "SCALE UNIT": "%", "REPORTED VALUE": -7.83}
{"COMPOUND": "CCc1nc(C)c(-c2nccn2CC2CC(=O)N(CC)C2)[nH]1 (configuration not stated)", "EXPERIMENTAL READOUT": "cytotoxicity at 70.5 h", "SCALE UNIT": "%", "REPORTED VALUE": 1.63}
{"COMPOUND": "CCC(NC(=O)c1cc(NC(C)=O)ccc1Cl)c1cc(C)ccn1 (configuration not stated)", "EXPERIMENTAL READOUT": "cytotoxicity at 70.5 h", "SCALE UNIT": "%", "REPORTED VALUE": 9.03}
{"COMPOUND": "CCCNc1cc(-c2c[nH]nc2C2CCN(C(=O)C3CCC3)C2)ccn1 (configuration not stated)", "EXPERIMENTAL READOUT": "cytotoxicity at 70.5 h", "SCALE UNIT": "%", "REPORTED VALUE": 96.6}

cytotoxicity at 70.5 h measured on Cc1ocnc1C(=O)N(C)[C@@H]1CCC[C@@H](N2CCCC2)[C@@H]1O = 25.2

cytotoxicity at 70.5 h measured on Cc1nn(C)c(C)c1C1CCCN1Cc1nc(-c2ccccn2)no1 (configuration not stated) = -5.05

cytotoxicity at 70.5 h measured on CN(Cc1cccs1)C1CCC[C@@H]2CN(C(=O)c3cnccn3)C[C@H]12 (some centres not stated) = -7.78

cytotoxicity at 70.5 h measured on CC1(C)CN(Cc2nnc(-c3cccnc3)o2)CC[C@]1(C)O = 8.67

cytotoxicity at 70.5 h measured on Cn1ccc(C(=O)N2CCC(Cc3cccc4cccnc34)C2)n1 (configuration not stated) = -5.77

cytotoxicity at 70.5 h measured on CC(=O)N1CC(=O)N(c2ccccc2)CC12CCN(CC1CC1)C2 (configuration not stated) = 7.19

cytotoxicity at 70.5 h measured on C[C@@H]1CN(C(=O)c2ccncc2)CC[C@@]1(O)C1CCOCC1 = -1.23

* * *

# PROTOCOL TEXT: Human HepG2 cell viability assay in 384 well format
# Assay type: toxicity, cell-based
# Design: dose 125 nL, time 70.5 hour; concentration not given beside the values
# TEST SETTINGS: HepG2 cells, read-out: Inhibition
Attribute: cytotoxicity at 70.5 h
Number only, in %; omit the unit.

The examples below pair each entry with its known result.
{"COMPOUND": "CCN(C)C[C@@H]1CN(C(=O)c2cc(C(F)(F)F)n[nH]2)C[C@@H]1CO", "cytotoxicity at 70.5 h / %": -10}
{"COMPOUND": "CS(=O)(=O)CCC(=O)N1C[C@@H]2CC[C@H](C1)N(Cc1ccccc1)C2=O", "cytotoxicity at 70.5 h / %": -8.53}
{"COMPOUND": "O=C(NCCCN1CCOCC1)c1ccc(Cl)cc1Cl", "cytotoxicity at 70.5 h / %": 2.42}
{"COMPOUND": "Cc1cc(Cl)ccc1NCC(=O)Nc1cc(C(C)(C)C)no1", "cytotoxicity at 70.5 h / %": -6.23}

Next molecule, cytotoxicity at 70.5 h to be filled in.
cytotoxicity at 70.5 h measured on O=C(CSc1ccc(F)c(F)c1)NS(=O)(=O)c1ccc2c(c1)OCCO2 = -14

* * *

# PROTOCOL TEXT: Human HepG2 cell viability assay in 384 well format
# Type: toxicity, cell-based
# Set-up: dose 125 nL, time 70.5 hour; concentration not given beside the values
# TEST SETTINGS: HepG2 cells, read-out: Inhibition
EXPERIMENTAL READOUT: cytotoxicity at 70.5 h (%)
Number only, in %; omit the unit.

The examples below pair each entry with its known result.
{"COMPOUND": "CC(=O)C1(c2ccccc2)CCN(C(=O)CC2CNCCO2)CC1 (configuration not stated)", "EXPERIMENTAL READOUT": "cytotoxicity at 70.5 h", "SCALE UNIT": "%", "REPORTED VALUE": -31.5}
{"COMPOUND": "CC(C)C(C)NC(=O)Nc1ccc(CC(N)=O)cc1 (configuration not stated)", "EXPERIMENTAL READOUT": "cytotoxicity at 70.5 h", "SCALE UNIT": "%", "REPORTED VALUE": -3.59}
{"COMPOUND": "Cc1cccc(NC(=O)NCC2(N3CCOCC3)CCSC2)c1 (configuration not stated)", "EXPERIMENTAL READOUT": "cytotoxicity at 70.5 h", "SCALE UNIT": "%", "REPORTED VALUE": 3.35}
{"COMPOUND": "COc1cc2c(cc1OC)CN(C(=O)NCC1CCCO1)CC2 (configuration not stated)", "EXPERIMENTAL READOUT": "cytotoxicity at 70.5 h", "SCALE UNIT": "%", "REPORTED VALUE": -3.43}
{"COMPOUND": "CC(C)OC(=O)N1CCC(Cc2cccc(C(N)=O)c2)C1 (configuration not stated)", "EXPERIMENTAL READOUT": "cytotoxicity at 70.5 h", "SCALE UNIT": "%", "REPORTED VALUE": 35.3}

cytotoxicity at 70.5 h measured on CCCS(=O)(=O)N1C[C@H]2C[C@H](C(=O)N(C)C)[C@@H](C1)O2 = -13.7

cytotoxicity at 70.5 h measured on O=S(=O)(NCC1OCCc2cn(CC3CCOCC3)nc21)C1CC1 (configuration not stated) = -3.73

cytotoxicity at 70.5 h measured on COC(=O)C1(C)CCN(C(=O)NCCc2c(C)[nH]c3ccccc23)C1 (configuration not stated) = -3.86

cytotoxicity at 70.5 h measured on COCCn1cc2c(n1)C(CNCc1ccco1)OCC2 (configuration not stated) = 22.8

cytotoxicity at 70.5 h measured on COc1ccc(CN2CCCC3(CCN(c4ccsc4)C3=O)C2)cc1 (configuration not stated) = 2.29

cytotoxicity at 70.5 h measured on N#Cc1cn(C2CC2)c(=O)n(CC(O)c2ccc(Cl)cc2)c1=O (configuration not stated) = -3.7

cytotoxicity at 70.5 h measured on Cc1cc2c(=O)n3c(nc2s1)CCN(Cc1cncn1C)CC3 = -7.45

cytotoxicity at 70.5 h measured on O=C1CC(N(C(=O)c2csc(-c3ccccc3)n2)C2CC2)C(=O)N1 (configuration not stated) = 10.8

cytotoxicity at 70.5 h measured on O=C(CCN1CCCC1c1cccc2c1OCCO2)N1CCOCC1 (configuration not stated) = -2.76

cytotoxicity at 70.5 h measured on CSCCc1c(-c2ccccc2)ncn1CCNc1cccnc1 = -8.03

cytotoxicity at 70.5 h measured on O=C(COc1coc(CN2CCOCC2)cc1=O)Nc1ccc(Cl)cc1 = -17.6

cytotoxicity at 70.5 h measured on CCc1noc(CN(C)Cc2ccc(N3CCCCC3)cc2)n1 = -7.61

cytotoxicity at 70.5 h measured on Cc1nnc(CN(C)CCCOc2cccc(Cl)c2)o1 = 0.527

cytotoxicity at 70.5 h measured on CCOc1c(Br)cc(CNCCc2nnc3n2CCCCC3)cc1OC = -10.5

* * *

Attribute: cytotoxicity at 70.5 h
# PROTOCOL TEXT: Human HepG2 cell viability assay in 384 well format
# Assay type: toxicity, cell-based
# Set-up: dose 125 nL, time 70.5 hour; concentration not given beside the values
# TEST SETTINGS: HepG2 cells, read-out: Inhibition
Number only, in %; omit the unit.

{"COMPOUND": "Cc1ccc(O)c(CN2CCn3nc(C(=O)N4CCCC4)cc3C2)n1", "SCALE UNIT": "%", "cytotoxicity at 70.5 h": 0.113}
{"COMPOUND": "CN(C)C(=O)C1CCCN1CCCNC(=O)Cc1ccccc1F (centres undefined)", "SCALE UNIT": "%", "cytotoxicity at 70.5 h": -16.1}

cytotoxicity at 70.5 h measured on Cc1nc(C2(O)CCCNCC2)sc1CCOc1ccc(F)c(F)c1 (centres undefined) = -4.26

cytotoxicity at 70.5 h measured on C[C@@H](NC(=O)c1ccc(Cl)cc1)c1onc(-c2cccnc2)c1C(=O)O = -6

cytotoxicity at 70.5 h measured on COc1ccc(CNC[C@@]2(COc3cccnc3)C[C@@H](O)[C@@H](O)C2)cc1 = 10.2

cytotoxicity at 70.5 h measured on Cc1cc(N2CCCC2c2nnc3n2CCCCC3)nc(N)n1 (centres undefined) = 22.8

cytotoxicity at 70.5 h measured on CC(C)CCn1nc(CNc2ccc(Br)cc2)nc1O = -17.8

cytotoxicity at 70.5 h measured on CCc1cnc(CN(C)C2CCN(CC3CCOCC3)C2)o1 (centres undefined) = 4.66

cytotoxicity at 70.5 h measured on CN1CCN(Cc2ccccc2CNC(=O)c2ccc(Br)cc2F)CC1 = -4.3

cytotoxicity at 70.5 h measured on Cc1cc(F)cc(S(=O)(=O)NCCCN2CCC(O)CC2)c1 = 11.3

cytotoxicity at 70.5 h measured on Cc1nccn1-c1ccc(CNC(=O)c2ccc([S+](C)[O-])cc2)cn1 (centres undefined) = -3.4

cytotoxicity at 70.5 h measured on CCn1ncnc1C(C)NC(=O)C1CCN(Cc2ccco2)CC1 (centres undefined) = -0.537

cytotoxicity at 70.5 h measured on O=C(CCn1cncn1)N1C[C@H]2CC[C@@H]1CN(Cc1ccncc1)C2 = 16.7

cytotoxicity at 70.5 h measured on CN(C)C(=O)c1cc2c(s1)CCN(C(=O)CCCN1CCCCC1)C2 = -6.61

cytotoxicity at 70.5 h measured on C[C@@H](O)CNC(=O)CCc1nc2cccnc2[nH]1 = -23.4

cytotoxicity at 70.5 h measured on COc1ccccc1OC1CCN(c2nccc(N)n2)CC1 = 19.5

cytotoxicity at 70.5 h measured on O=C(Nc1ccc(F)cc1)N1C[C@H]2C[C@H](C(=O)N3CCCC3)[C@@H](C1)O2 = -9.47

cytotoxicity at 70.5 h measured on Cc1cnn(C2CCCN(C(=O)c3ccn(C)c(=O)c3)C2)c1 (centres undefined) = -11.3

cytotoxicity at 70.5 h measured on NS(=O)(=O)CC1CCN(c2ncccc2C(F)(F)F)CC1 = 7.95

cytotoxicity at 70.5 h measured on Cc1ccc(F)c(OC2(C(=O)O)CCN(C(=O)c3ccncc3)CC2)c1 = -4.46

cytotoxicity at 70.5 h measured on CC(C)CS(=O)(=O)N1C[C@H]2C[C@H](C(=O)Nc3cccnc3)[C@@H](C1)O2 = -6.34
